# Method notes: qHTS profiling for inhibitors of Plasmodium falciparum (DD2) proliferation (AID 743323)
# Condition: lower = more inhibition; at 28.7 µM (top of the series) unless noted
activity, percent of control values, listed per item

Compound	activity, percent of control / %
C[C@@H]1CCN(C(=O)CC#N)C[C@@H]1N(C)c1ncnc2[nH]ccc12	99.8
COC(=O)C1=C(C)NC(C)=C(C(=O)OCCCN2CCC(c3ccccc3)(c3ccccc3)CC2)[C@H]1c1cccc([N+](=O)[O-])c1	-0.102
CCC1(O)CC2CN(CCc3c([nH]c4ccccc34)[C@@](C(=O)OC)(c3cc4c(cc3OC)N(C=O)[C@H]3[C@](O)(C(=O)OC)[C@H](OC(C)=O)[C@]5(CC)C=CCN6CC[C@]43[C@@H]65)C2)C1 (some centres undefined)	13.7

All values here come from PubChem BioAssay (NCATS).
